The measured values listed here are drawn from ChEMBL document CHEMBL5576149.

- procedureSummary: Bioavailability in Wistar Han rat at 2 mg/kg,po or 1 mg/kg,iv administrated upto 60 mins by LC-MS/MS analysis
- Type: ADME, organism-based
- measurementParameters: in vivo
// reported bioavailability per item
Give me the value, and tack the unit on after it.

- Cc1cnc(NC(=O)c2cc(S(=O)(=O)N(C)C)ccc2N2CCCC2)s1: 0.6%

Next compound, please.
Value lookup for bioavailability; key = CN(C)S(=O)(=O)c1ccc(N2CCCC2)c(-c2cc3ccccc3[nH]2)c1 0%

###

- Test system: Human respirovirus 3
- procedureSummary: Antiviral activity against Human parainfluenza virus 3 JS infected in human A549 cells assessed as reduction in viral proliferation incubated for 44 hrs by Hoechst dye based fluorescence analysis
- Type: functional, organism-based
- measurementParameters: Human respirovirus 3, JS, A549, 44 h
parameter: log10 EC50 (log10 of the value in nM)
Would you kindly interpret these values as log10 of EC50 expressed in nM?

Worked examples follow.
• CN(C)S(=O)(=O)c1ccc(N2CC[C@H](O)C2)c(-c2cc3ccccc3[nH]2)c1 = 2.27
• O=C([C@@H]1CCN1S(=O)(=O)c1ccc(N2CC[C@@H](O)C2)c(-c2cc3ccccc3[nH]2)c1)N1CCOCC1 = 1.76

Give log10 EC50 (Human respirovirus 3) of the following compound: Cc1ccc2cc(-c3cc(S(=O)(=O)N(C)CC(=O)N4CCOCC4)ccc3N3CCCC3)[nH]c2c1 0.78

Give log10 EC50 (Human respirovirus 3) of the following compound: Cc1ccc2cc(-c3cc(S(=O)(=O)N(C)CC(=O)N4CCOC[C@@H]4C)ccc3N3CCCC3)[nH]c2c1 1.08

Give log10 EC50 (Human respirovirus 3) of the following compound: Cc1cnc(NC(=O)c2cc(S(=O)(=O)N(C)C)ccc2N2CCCC2)s1 2.58

Give log10 EC50 (Human respirovirus 3) of the following compound: CN(C)S(=O)(=O)c1ccc(N2CCCC2)c(-c2cc3ccccc3[nH]2)c1 0.95

###

- procedureSummary: Unbound clearance in human liver microsomes at 0.5 uM incubated upto 45 mins
- Type: ADME, Microsome
- measurementParameters: 0.75 h
Lab note: anything with CL free below 300 mL/min/kg is marked TRUE; values at 300 mL/min/kg or higher are marked FALSE.

Worked examples, 6 compounds total:
* O=C([C@@H]1CCN1S(=O)(=O)c1ccc(N2CC[C@@H](O)C2)c(-c2cc3ccccc3[nH]2)c1)N1CCOCC1 | FALSE
* CN(C)S(=O)(=O)c1ccc(N2CCC2)c(-c2cc3ccccc3[nH]2)c1 | TRUE
* CN(C)S(=O)(=O)c1ccc(N2CC[C@@H](O)C2)c(-c2cc3ccccc3[nH]2)c1 | TRUE
* O=C([C@@H]1CCN1S(=O)(=O)c1ccc(N2CCC(F)(F)C2)c(-c2cc3ccccc3[nH]2)c1)N1CCOCC1 | FALSE
* CN(C)S(=O)(=O)c1ccc(N2CC[C@H](O)C2)c(-c2cc3ccccc3[nH]2)c1 | TRUE
* C[S@@](=N)(=O)c1ccc(N2CC[C@H](O)C2)c(-c2cc3ccccc3[nH]2)c1 | TRUE

State whether 300 mL/min/kg exceeds CL free recorded for CCS(=O)(=O)c1ccc(N2CC[C@H](O)C2)c(-c2cc3ccccc3[nH]2)c1 . TRUE

State whether 300 mL/min/kg exceeds CL free recorded for C[S@](=N)(=O)c1ccc(N2CC[C@H](O)C2)c(-c2cc3ccccc3[nH]2)c1 . TRUE

State whether 300 mL/min/kg exceeds CL free recorded for CN(C)S(=O)(=O)c1ccc(N2CCC(F)(F)C2)c(-c2cc3ccccc3[nH]2)c1 . FALSE

###

// reported CC50 per item
- procedureSummary: Cytotoxicity against human MRC5 cells by luminescence-based cell viability assay
- Assay type: toxicity
A number alone suffices; assume nM.

• O=C([C@@H]1CCN1S(=O)(=O)c1ccc(N2CC[C@@H](O)C2)c(-c2cc3ccccc3[nH]2)c1)N1CCOCC1 = 926
• CN(C)S(=O)(=O)c1ccc(N2CC[C@H](O)C2)c(-c2cc3ccccc3[nH]2)c1 = 984
• CN(C)S(=O)(=O)c1ccc(N2CCCC2)c(-c2cc3ccccc3[nH]2)c1 = 688

Value lookup for CC50; key = Cc1ccc2cc(-c3cc(S(=O)(=O)N(C)CC(=O)N4CCOCC4)ccc3N3CCCC3)[nH]c2c1 44

Value lookup for CC50; key = CCS(=O)(=O)c1ccc(N2CC[C@H](O)C2)c(-c2cc3ccccc3[nH]2)c1 4110

Value lookup for CC50; key = Cc1ccc2cc(-c3cc(S(=O)(=O)N(C)CC(=O)N4CCOC[C@@H]4C)ccc3N3CCCC3)[nH]c2c1 199

###

- target: Voltage-gated inwardly rectifying potassium channel KCNH2 (Homo sapiens, UniProt Q12809)
- Sequence (Q12809 whole entry): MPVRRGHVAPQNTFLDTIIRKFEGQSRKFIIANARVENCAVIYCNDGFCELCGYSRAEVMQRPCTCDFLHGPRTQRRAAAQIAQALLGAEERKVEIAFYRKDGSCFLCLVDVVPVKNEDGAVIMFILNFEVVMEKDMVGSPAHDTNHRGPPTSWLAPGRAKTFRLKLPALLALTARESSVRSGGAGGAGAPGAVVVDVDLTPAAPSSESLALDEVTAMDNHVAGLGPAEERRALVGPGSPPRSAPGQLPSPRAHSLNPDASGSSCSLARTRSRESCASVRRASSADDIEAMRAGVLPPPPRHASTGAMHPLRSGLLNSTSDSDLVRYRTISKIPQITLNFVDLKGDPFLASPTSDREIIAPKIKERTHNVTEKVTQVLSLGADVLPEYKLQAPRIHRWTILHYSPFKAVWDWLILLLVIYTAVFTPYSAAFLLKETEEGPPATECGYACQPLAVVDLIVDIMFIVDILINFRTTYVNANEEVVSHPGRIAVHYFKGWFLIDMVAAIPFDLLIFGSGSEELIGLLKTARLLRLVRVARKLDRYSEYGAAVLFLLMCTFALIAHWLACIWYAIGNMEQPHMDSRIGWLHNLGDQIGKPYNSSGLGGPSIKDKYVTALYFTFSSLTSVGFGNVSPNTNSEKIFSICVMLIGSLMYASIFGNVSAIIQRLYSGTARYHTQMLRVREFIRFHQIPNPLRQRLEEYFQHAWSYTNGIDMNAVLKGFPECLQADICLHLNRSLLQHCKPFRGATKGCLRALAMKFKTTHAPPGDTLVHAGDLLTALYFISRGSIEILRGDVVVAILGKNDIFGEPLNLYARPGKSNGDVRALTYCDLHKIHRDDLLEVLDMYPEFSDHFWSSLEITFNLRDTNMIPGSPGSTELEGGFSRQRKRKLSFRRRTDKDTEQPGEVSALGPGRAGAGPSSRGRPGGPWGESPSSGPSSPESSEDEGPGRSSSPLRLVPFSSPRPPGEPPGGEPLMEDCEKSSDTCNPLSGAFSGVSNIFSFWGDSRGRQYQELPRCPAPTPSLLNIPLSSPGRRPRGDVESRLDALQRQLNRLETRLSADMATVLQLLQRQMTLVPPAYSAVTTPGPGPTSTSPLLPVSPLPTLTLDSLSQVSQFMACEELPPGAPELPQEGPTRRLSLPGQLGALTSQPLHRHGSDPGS
- procedureSummary: Inhibition of hERG expressed in CHO cells by QPatch voltage clamp assay
- Format: toxicity, cell-based
parameter: IC50

Value lookup for IC50; key = CN(C)S(=O)(=O)c1ccc(N2CC[C@H](O)C2)c(-c2cc3ccccc3[nH]2)c1 ~20 µM

###

// reported Vdss per item
- procedureSummary: Volume of distribution at steady state in CD1 mouse at 2 mg/kg,po or 1 mg/kg,iv administrated upto 60 mins by LC-MS/MS analysis
- Assay type: ADME, organism-based
- measurementParameters: in vivo, 1 h
A number alone suffices; assume L/kg.

Worked examples follow.
• CN(C)S(=O)(=O)c1ccc(N2CCCC2)c(-c2cc3ccccc3[nH]2)c1 = 6
• C[S@@](=N)(=O)c1ccc(N2CC[C@H](O)C2)c(-c2cc3ccccc3[nH]2)c1 = 2
• CCS(=O)(=O)c1ccc(N2CC[C@H](O)C2)c(-c2cc3ccccc3[nH]2)c1 = 2.7

Value lookup for Vdss; key = CN(C)S(=O)(=O)c1ccc(N2CC[C@H](O)C2)c(-c2cc3ccccc3[nH]2)c1 4.3

###

- procedureSummary: MRT in CD1 mouse at 2 mg/kg,po or 1 mg/kg,iv administrated upto 60 mins by LC-MS/MS analysis
- Format: ADME, organism-based
- measurementParameters: in vivo
parameter: MRT (h)
A number alone suffices; assume h.

Worked examples follow.
* CN(C)S(=O)(=O)c1ccc(N2CCCC2)c(-c2cc3ccccc3[nH]2)c1 | 0.9
* CCS(=O)(=O)c1ccc(N2CC[C@H](O)C2)c(-c2cc3ccccc3[nH]2)c1 | 1.4
* C[S@@](=N)(=O)c1ccc(N2CC[C@H](O)C2)c(-c2cc3ccccc3[nH]2)c1 | 3

Next molecule, please.
Value lookup for MRT; key = CN(C)S(=O)(=O)c1ccc(N2CC[C@H](O)C2)c(-c2cc3ccccc3[nH]2)c1 1

###

- Test system: Human coronavirus 229E
- procedureSummary: Antiviral activity against Human coronavirus 229E infected in human MRC5 cells assessed as reduction in viral growth incubated for 68 hrs by CellTiter-Glo luminescence assay
- Format: functional, organism-based
- measurementParameters: MRC5, 68 h
// reported pEC50 per item
# pEC50: negative log10 of molar concentration; output just the value

Worked examples follow.
• CCS(=O)(=O)c1ccc(N2CC[C@H](O)C2)c(-c2cc3ccccc3[nH]2)c1 = 7.24
• CN(C)S(=O)(=O)c1ccc(N2CC[C@H](O)C2)c(-c2cc3ccccc3[nH]2)c1 = 7.52
• Cc1ccc2cc(-c3cc(S(=O)(=O)N(C)CC(=O)N4CCOC[C@@H]4C)ccc3N3CCCC3)[nH]c2c1 = 8.30
• Cc1ccc2cc(-c3cc(S(=O)(=O)N(C)CC(=O)N4CCOCC4)ccc3N3CCCC3)[nH]c2c1 = 8.70
• O=C([C@@H]1CCN1S(=O)(=O)c1ccc(N2CC[C@@H](O)C2)c(-c2cc3ccccc3[nH]2)c1)N1CCOCC1 = 8.15

Value lookup for pEC50; key = CN(C)S(=O)(=O)c1ccc(N2CCCC2)c(-c2cc3ccccc3[nH]2)c1 7.60

Value lookup for pEC50; key = Cc1cnc(NC(=O)c2cc(S(=O)(=O)N(C)C)ccc2N2CCCC2)s1 5.87

###

// reported EC50 per item
- System: Influenza A virus
- procedureSummary: Antiviral activity against influenza A virus H1N1 A/Puerto Rico/8/1934 infected in MDCK cells assessed as reduction in viral proliferation incubated for 24 hrs by FFU assay
- Format: functional, organism-based
- measurementParameters: H1N1 A/Puerto Rico/8/1934, MDCK
A number alone suffices; assume nM.

Worked examples follow.
- CN(C)S(=O)(=O)c1ccc(N2CC[C@H](O)C2)c(-c2cc3ccccc3[nH]2)c1: 297
- CCS(=O)(=O)c1ccc(N2CC[C@H](O)C2)c(-c2cc3ccccc3[nH]2)c1: 307

Next compound, please.
Value lookup for EC50; key = CN(C)S(=O)(=O)c1ccc(N2CCCC2)c(-c2cc3ccccc3[nH]2)c1 152
